biological target: CaV1.2 (L-type voltage-dependent calcium channel; CACNA1C, CACNB2, CACNA2D1) (Homo sapiens, UniProt Q13936); construct: expressed in transfected cells; host or cells: CHO; test: CaV1.2 channel whole-cell patch clamp (Ion Channel Activity Measurement); type: cell-based; conditions: human, pH 7.4, 1 μM test article, room temperature
Sequence (Q13936 1-2138 isoform Q13936-12): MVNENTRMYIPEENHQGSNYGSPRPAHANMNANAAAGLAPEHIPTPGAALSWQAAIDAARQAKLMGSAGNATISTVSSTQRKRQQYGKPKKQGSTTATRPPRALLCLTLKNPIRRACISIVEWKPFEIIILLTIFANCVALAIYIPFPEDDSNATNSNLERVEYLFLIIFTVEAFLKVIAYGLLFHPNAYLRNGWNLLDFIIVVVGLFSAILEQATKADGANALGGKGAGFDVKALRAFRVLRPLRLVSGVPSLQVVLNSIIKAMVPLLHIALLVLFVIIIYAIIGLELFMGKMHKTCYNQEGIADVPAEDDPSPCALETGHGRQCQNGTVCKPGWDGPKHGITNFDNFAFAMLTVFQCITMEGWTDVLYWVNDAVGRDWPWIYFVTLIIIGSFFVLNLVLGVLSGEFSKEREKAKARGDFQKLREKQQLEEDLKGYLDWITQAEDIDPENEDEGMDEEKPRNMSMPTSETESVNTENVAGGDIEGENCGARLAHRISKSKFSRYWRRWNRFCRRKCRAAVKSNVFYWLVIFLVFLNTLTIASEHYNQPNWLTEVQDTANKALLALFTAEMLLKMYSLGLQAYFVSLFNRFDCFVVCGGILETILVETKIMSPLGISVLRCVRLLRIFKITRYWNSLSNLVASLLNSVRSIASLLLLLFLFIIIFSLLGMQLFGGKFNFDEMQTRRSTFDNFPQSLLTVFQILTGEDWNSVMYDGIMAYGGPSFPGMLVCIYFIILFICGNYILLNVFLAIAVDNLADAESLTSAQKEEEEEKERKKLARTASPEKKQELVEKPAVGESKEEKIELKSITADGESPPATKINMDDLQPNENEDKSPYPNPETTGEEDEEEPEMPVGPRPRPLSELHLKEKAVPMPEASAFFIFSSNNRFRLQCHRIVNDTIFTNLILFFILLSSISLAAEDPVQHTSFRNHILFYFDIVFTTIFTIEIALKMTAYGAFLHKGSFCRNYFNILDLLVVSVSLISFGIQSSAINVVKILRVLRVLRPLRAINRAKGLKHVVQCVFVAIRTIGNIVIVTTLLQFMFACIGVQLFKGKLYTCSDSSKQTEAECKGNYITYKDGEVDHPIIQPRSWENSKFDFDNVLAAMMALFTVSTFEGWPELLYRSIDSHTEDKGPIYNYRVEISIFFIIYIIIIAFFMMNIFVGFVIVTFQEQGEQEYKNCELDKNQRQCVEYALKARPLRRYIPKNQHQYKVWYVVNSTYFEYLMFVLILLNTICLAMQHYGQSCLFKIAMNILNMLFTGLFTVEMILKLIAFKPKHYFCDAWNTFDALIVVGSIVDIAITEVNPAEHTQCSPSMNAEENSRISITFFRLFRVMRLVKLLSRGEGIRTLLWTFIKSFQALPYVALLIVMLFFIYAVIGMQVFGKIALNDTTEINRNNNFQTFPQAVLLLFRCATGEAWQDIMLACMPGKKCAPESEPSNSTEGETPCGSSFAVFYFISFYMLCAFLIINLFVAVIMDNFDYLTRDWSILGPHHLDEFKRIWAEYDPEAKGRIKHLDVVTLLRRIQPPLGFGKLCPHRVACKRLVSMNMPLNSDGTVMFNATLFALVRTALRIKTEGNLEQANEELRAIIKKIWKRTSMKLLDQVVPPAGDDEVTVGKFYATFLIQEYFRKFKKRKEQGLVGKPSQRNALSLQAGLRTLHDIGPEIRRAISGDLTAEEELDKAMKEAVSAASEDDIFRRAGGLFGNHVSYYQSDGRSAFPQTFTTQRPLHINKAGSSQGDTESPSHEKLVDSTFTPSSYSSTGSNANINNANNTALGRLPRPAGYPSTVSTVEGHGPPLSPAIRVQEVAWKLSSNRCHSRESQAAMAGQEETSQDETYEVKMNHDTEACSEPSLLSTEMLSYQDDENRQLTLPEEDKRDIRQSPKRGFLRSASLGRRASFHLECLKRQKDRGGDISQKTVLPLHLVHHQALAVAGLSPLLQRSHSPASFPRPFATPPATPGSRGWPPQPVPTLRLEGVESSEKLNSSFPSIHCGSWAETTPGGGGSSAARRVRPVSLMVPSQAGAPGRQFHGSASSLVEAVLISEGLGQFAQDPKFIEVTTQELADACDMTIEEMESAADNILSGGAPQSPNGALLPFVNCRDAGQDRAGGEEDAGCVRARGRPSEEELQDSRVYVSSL
Sequence (Q08289 1-605 isoform Q08289-2 partner): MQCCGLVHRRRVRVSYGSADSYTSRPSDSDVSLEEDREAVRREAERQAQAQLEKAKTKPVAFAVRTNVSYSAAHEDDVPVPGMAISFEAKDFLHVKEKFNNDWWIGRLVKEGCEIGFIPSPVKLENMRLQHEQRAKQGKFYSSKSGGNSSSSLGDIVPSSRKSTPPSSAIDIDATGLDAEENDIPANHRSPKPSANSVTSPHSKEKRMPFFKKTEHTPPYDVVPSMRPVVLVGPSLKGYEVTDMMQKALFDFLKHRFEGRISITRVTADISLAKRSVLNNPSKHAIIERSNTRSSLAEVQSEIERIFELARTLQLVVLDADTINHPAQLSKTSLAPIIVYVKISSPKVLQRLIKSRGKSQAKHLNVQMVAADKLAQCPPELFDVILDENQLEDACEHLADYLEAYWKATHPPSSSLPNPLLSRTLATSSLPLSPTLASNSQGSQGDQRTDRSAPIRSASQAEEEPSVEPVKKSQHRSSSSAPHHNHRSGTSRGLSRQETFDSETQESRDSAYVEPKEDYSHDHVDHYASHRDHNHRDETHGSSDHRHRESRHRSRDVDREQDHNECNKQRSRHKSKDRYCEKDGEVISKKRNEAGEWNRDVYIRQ
Sequence (P54289 25-1091 isoform P54289-2 partner limits assumed): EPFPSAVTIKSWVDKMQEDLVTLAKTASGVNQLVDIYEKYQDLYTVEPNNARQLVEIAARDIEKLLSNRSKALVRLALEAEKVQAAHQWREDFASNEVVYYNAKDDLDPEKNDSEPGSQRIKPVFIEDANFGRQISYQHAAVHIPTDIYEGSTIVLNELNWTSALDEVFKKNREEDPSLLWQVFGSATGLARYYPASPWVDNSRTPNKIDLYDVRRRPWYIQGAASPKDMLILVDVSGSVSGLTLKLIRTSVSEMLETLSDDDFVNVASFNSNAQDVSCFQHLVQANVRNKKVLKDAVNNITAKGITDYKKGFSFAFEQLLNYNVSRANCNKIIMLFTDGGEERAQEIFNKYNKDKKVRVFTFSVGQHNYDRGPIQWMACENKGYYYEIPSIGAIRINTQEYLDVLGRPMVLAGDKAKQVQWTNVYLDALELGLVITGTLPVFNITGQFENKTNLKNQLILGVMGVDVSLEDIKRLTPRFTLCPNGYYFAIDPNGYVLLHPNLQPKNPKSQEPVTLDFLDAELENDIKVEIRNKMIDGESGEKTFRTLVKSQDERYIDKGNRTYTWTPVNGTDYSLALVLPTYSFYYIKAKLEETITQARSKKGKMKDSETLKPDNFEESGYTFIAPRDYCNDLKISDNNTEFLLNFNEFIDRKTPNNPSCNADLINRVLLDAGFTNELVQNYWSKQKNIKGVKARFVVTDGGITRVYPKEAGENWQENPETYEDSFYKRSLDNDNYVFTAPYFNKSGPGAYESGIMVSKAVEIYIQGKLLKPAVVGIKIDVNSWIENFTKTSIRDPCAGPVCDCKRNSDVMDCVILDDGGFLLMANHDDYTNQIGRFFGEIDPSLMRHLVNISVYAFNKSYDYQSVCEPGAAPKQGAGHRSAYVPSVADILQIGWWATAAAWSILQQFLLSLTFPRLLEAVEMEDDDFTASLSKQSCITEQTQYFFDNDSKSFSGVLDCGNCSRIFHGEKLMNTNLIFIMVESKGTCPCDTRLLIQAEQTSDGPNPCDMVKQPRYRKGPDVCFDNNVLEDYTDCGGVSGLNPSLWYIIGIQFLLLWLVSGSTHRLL
Sequence (P54289 957-1103 partner limits assumed): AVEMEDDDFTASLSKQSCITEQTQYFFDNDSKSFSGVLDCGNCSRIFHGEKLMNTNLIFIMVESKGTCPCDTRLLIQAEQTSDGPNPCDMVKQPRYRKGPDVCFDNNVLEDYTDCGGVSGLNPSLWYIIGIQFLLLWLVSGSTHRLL
Provide the reported inhibition at 5 min, 1 μM of each item.

# input Give the measured inhibition at 5 min, 1 μM of O=C(O)c1ccc2ccccc2c1Cc1c(O)ccc2ccccc12 .
# output < 25%

# input Repeat for the following compound: CCN(CC)CCOc1ccc2ccccc2c1Cc1c(O)c(C)cc2ccccc12
# output < 25%

# input Continue with Oc1ccc2ccccc2c1Cn1nc(-c2ccccc2)cc1O
# output < 25%

# input // repeat for COCCOc1ccc2ccccc2c1Cc1c(OCCN2CCCC2)ccc2ccccc12 and report
# output < 25%

# input Subsequent entry: CN(C)CCOc1ccc2ccccc2c1Cc1c(O)ccc2ccccc12
# output < 25%

# input Check O=C(Nc1c(O)ccc2ccccc12)c1c(O)ccc2ccccc12 too.
# output < 25%

# input What do you get for COc1cccc(-c2cccnc2)c1Cc1c(O)cccc1-c1cccnc1 ?
# output < 25%

# input Follow-up entry: CC[N+](C)(CC)CCOc1ccc2ccccc2c1Sc1c(OC)ccc2ccccc12
# output 25 to 50%

# input What do you get for Oc1ccc2ccccc2c1Cc1c(OCCC2CCNCC2)ccc2ccccc12 ?
# output < 25%

---

molecular target: hERG (human ether-a-go-go related gene potassium channel, KCNH2) (Homo sapiens, UniProt Q12809); construct: expressed in transfected cells; host or cells: HEK293; assay: hERG channel whole-cell patch clamp (Ion Channel Activity Measurement); type: cell-based; settings: human, HEK293 cells expressing the human ERG potassium channel, pH 7.4, 10 μM test article, room temperature
measured-metric: inhibition at 10 μM

# input Which value of inhibition at 10 μM has been reported for NC(=O)c1ccc2c(Cc3c(O)ccc4ccccc34)c(O)ccc2c1 [Compound A122] in the records?
# output 75 to 100%

# input Let us now turn to COc1cccc(-c2ccncc2)c1Cc1c(O)cccc1-c1ccncc1 [Compound A118-I-1]
# output 25 to 50%

# input Field entry: CN(c1c(O)ccc2ccccc12)c1c(O)ccc2ccccc12 [Compound A003]
# output 75 to 100%

# input Same again, this time with COc1cccc(-c2cccnc2)c1Cc1c(O)cccc1-c1cccnc1 [Compound A117-I-1]
# output 25 to 50%

# input Input O=S(=O)(Nc1ccc2ccccc2c1Cc1c(O)ccc2ccccc12)c1ccccc1 [Compound A026]
# output 25 to 50%

# input Please answer likewise for Oc1cccc2c1C(c1c(O)ccc3c1CCCC3)CCC2 (centres unmarked) [Compound A077-2]
# output 50 to 75%

# input Follow-up entry: [O-][S+](c1c(O)ccc2ccccc12)c1c(O)ccc2ccccc12 [Compound A006, 1,1′-sulfinylbis(naphthalen-2-ol)]
# output < 25%

# input Please give the result for CCN(CC)CCCOc1ccc2ccccc2c1Cc1c(O)ccc2ccccc12 [Compound A135] too.
# output 75 to 100%

---

target: CaV1.2 (L-type voltage-dependent calcium channel; CACNA1C, CACNB2, CACNA2D1) (Homo sapiens, UniProt Q13936); construct: expressed in transfected cells; host or cells: CHO; experiment: CaV1.2 channel whole-cell patch clamp (Ion Channel Activity Measurement); type: cell-based; conditions: human, pH 7.4, 10 μM test article, room temperature, read-out: CaV 1.2 10 μM (ion-channel inhibition)
Counter-ions that a name gives are not always drawn.
measured-metric: inhibition at 5 min, 10 μM

# input Which measured inhibition at 5 min, 10 μM value corresponds to COc1cccc(-c2cccnc2)c1Cc1c(O)cccc1-c1cccnc1 [Compound A117-I-1] ?
# output < 25%

# input How about Cc1cc2ccccc2c(O)c1Cc1c(C)cc2ccccc2c1O [Compound A035] ?
# output 75 to 100%

# input Can you handle Oc1cccc2c1C(c1c(O)ccc3ccccc13)CCC2 (stereo not drawn) [Compound A077] next?
# output < 25%

# input Then this compound: Oc1cccc2c1C(c1c(O)ccc3c1CCCC3)CCC2 (stereo not drawn) [Compound A077-2]
# output < 25%

# input Repeat with CCN(CC)CCOc1ccc2cc(C(=O)O)ccc2c1Cc1c(O)ccc2cc(C(=O)O)ccc12 [Compound A125]
# output 75 to 100%

# input Please answer likewise for COc1ccc2ccccc2c1Cc1c(OCC[N+]2(C)CCCC2)ccc2ccccc12 [Compound A129-2, formate]
# output 75 to 100%

# input Same for COc1ccc2ccccc2c1Cc1c(OCC[N+]2(C)CCOCC2)ccc2ccccc12 [Compound A130-2, formate]
# output 75 to 100%

# input Another compound: O=C(O)c1ccc2ccccc2c1Cc1c(O)ccc2ccccc12 [Compound A106]
# output < 25%

# input Same read-out for CCOCOc1ccc2ccccc2c1Cc1c(OCCN2CCCC2)ccc2ccccc12 [Compound A254] ?
# output 50 to 75%

# input Same for CCN(CC)CCNC(=O)c1ccc2ccccc2c1Cc1c(OC)ccc2ccccc12 [Compound A238]
# output 75 to 100%

# input And O=C(Nc1c(O)ccc2ccccc12)c1c(O)ccc2ccccc12 [Compound A044] ?
# output < 25%

# input Moving on to the next compound: COc1ccc2ccccc2c1Cc1c(O)ccc2ccccc12 [Compound A014]
# output 50 to 75%

# input Please answer likewise for O=C(c1c(O)ccc2ccccc12)c1c(OCCN2CCCC2)ccc2ccccc12 [Compound A234]
# output 75 to 100%

# input Param item: Cc1cc2ccccc2c(Cc2c(O)c(C)cc3ccccc23)c1O [Compound A032]
# output < 25%

# input Try this compound too: CCN(CC)CCOc1ccc2ccccc2c1Sc1c(OC)ccc2ccccc12 [Compound A152]
# output 75 to 100%

# input Try this compound too: Nc1ccc2ccccc2c1Cc1c(N)ccc2ccccc12 [Compound A022, 1,1′-methylenebis(naphthalen-2-amine)]
# output 50 to 75%

# input Further, for CCOc1ccc2ccccc2c1Cc1c(OCCN2CCCC2)ccc2ccccc12 [Compound A255] ?
# output 75 to 100%

# input Another compound to look at: Oc1ccc2ccccc2c1Cc1c(OCCC2CCNCC2)ccc2ccccc12 [Compound A286]
# output 75 to 100%

---

I'd appreciate it if you could supply inhibition at 1 μM values for the items below.
biological target: hERG (human ether-a-go-go related gene potassium channel, KCNH2) (Homo sapiens); construct: expressed in transfected cells; host or cells: HEK293; assay: hERG channel whole-cell patch clamp (Ion Channel Activity Measurement); format: cell-based; conditions: human, HEK293 cells expressing the human ERG potassium channel, pH 7.4, 1 μM test article, room temperature

# input Can you share its inhibition at 1 μM? I mean this compound: CN(C)CCOc1ccc2ccccc2c1Cc1c(O)ccc2ccccc12 [Compound A134]
# output 75 to 100%

# input What do you get for CN(c1c(O)ccc2ccccc12)c1c(O)ccc2ccccc12 [Compound A003] ?
# output 25 to 50%

# input Next compound up: CCN(CC)CCOc1ccc2ccccc2c1Cc1c(O)c(C)cc2ccccc12 [Compound A098]
# output 25 to 50%

# input Now the same for COc1ccc2ccccc2c1Nc1c([N+](=O)[O-])ccc2ccccc12 [Compound A196]
# output < 25%

# input One more compound: CCN(CC)CCOc1ccc2ccccc2c1N(C)c1c(OC)ccc2ccccc12 [Compound A111-I-2, 2,2,2-trifluoroacetate]
# output 50 to 75%

# input // query: [O-][S+](c1c(O)ccc2ccccc12)c1c(O)ccc2ccccc12 [Compound A006, 1,1′-sulfinylbis(naphthalen-2-ol)]
# output < 25%

# input Now consider c1ccc(COc2ccc3ccccc3c2Cc2c(OCCN3CCCC3)ccc3ccccc23)cc1 [Compound A291] and answer again.
# output 75 to 100%

# input Next compound up: Cc1ccc(O)c(Cc2c(O)ccc(C)c2C)c1C [Compound A017, 2,2′-methylenebis(3,4-dimethylphenol)]
# output < 25%

---

molecular target: Iks potassium channel (KCNQ1/KCNE1) (Homo sapiens); construct: expressed in transfected cells; host or cells: CHO; assay: Iks channel whole-cell patch clamp (Ion Channel Activity Measurement); assay type: cell-based; conditions: human, CHO cells stably expressing Iks channel (KCNQ1 and KCNE1), pH 7.4, 10 μM test article, room temperature
Where a name gives a salt, the structure may show the parent alone.
Give measured inhibition at 5 min, 10 μM for each item. Keep answers brief.

# input I would be grateful if you could share the reported inhibition at 5 min, 10 μM for CCN(CC)CCOc1ccc2ccccc2c1Sc1c(O)ccc2ccccc12 .
# output 75 to 100%

# input Another: COc1ccc2ccccc2c1Cc1c(OCC[N+]2(C)CCOCC2)ccc2ccccc12 [Compound A130-2, formate]
# output 25 to 50%

# input Next entry: Oc1ccc2ccccc2c1Cc1c(OCCN2CCCC2)ccc2ccccc12
# output 75 to 100%

# input Same again, this time with Cc1cc2ccccc2c(Cc2c(O)ccc3ccccc23)c1O
# output 50 to 75%

# input Field entry: COc1ccc2ccccc2c1Cc1c(OC)ccc2ccccc12
# output < 25%

# input Query CN(C)CCOc1ccc2ccccc2c1Cc1c(O)ccc2ccccc12 next
# output 75 to 100%

# input Now consider CCN(CC)CCOc1ccc2ccccc2c1Nc1c(OC)ccc2ccccc12 and answer again.
# output 75 to 100%

# input Follow-up entry: O=S(=O)(c1c(O)ccc2ccccc12)c1c(O)ccc2ccccc12
# output 25 to 50%

# input Now give it for COc1ccc2ccccc2c1Cc1c(O)ccc2ccccc12 too.
# output < 25%

# input Now try O=S(=O)(Nc1ccc2ccccc2c1Cc1c(O)ccc2ccccc12)c1ccccc1 .
# output 75 to 100%

# input Quick one: Oc1ccc2ccccc2c1Cc1c(O)ccc2ccccc12
# output 75 to 100%

# input Another: Oc1ccccc1Cc1ccccc1O
# output < 25%

# input Then [O-][S+](c1c(O)ccc2ccccc12)c1c(O)ccc2ccccc12 ?
# output 25 to 50%

# input Same lookup for CN(c1c(O)ccc2ccccc12)c1c(O)ccc2ccccc12 , please.
# output 50 to 75%

# input Same read-out for CCN(CC)CCOc1ccc2ccccc2c1Sc1c(OC)ccc2ccccc12 ?
# output 50 to 75%

# input Check CCN(CC)CCCOc1ccc2ccccc2c1Cc1c(O)ccc2ccccc12 too.
# output 75 to 100%

# input Likewise for COc1ccc2ccccc2c1C(O)c1c(OC)ccc2ccccc12 ?
# output 25 to 50%
